# targetEntity: 5-Lipoxygenase (Rattus norvegicus)
# Construct: endogenous in cells
# Sequence (P12527 whole entry): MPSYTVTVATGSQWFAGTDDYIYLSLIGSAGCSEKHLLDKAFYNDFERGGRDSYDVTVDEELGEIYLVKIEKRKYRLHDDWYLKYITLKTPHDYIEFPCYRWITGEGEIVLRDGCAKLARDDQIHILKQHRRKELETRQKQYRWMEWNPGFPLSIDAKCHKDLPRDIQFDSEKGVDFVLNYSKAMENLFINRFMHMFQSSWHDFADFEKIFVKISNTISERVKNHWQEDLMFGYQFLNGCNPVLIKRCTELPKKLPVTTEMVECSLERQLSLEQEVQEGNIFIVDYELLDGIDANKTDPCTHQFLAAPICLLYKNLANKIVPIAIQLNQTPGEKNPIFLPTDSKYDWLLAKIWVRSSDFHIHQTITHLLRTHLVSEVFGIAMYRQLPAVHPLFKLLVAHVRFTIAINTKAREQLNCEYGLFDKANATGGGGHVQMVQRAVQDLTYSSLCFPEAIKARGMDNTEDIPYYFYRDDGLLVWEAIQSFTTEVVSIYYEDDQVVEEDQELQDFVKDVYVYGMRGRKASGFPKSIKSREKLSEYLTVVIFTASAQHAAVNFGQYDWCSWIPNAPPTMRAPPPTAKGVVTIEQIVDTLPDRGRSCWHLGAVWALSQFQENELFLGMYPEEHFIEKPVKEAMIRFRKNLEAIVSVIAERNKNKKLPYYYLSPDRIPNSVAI
# assayComment: 5-Lipoxygenase inhibitory activity: 5-HETE production in RBL-1 cells (HPLC)
# conditionLabel: arachidonic acid + A 23187, 37° C., 20 minutes, read-out: 5-HETE production inhibiting effect (IC50)
measuredProperty: pIC50
Answers are plain numbers, as −log10 of the molar value.

Known pIC50 results, listed for orientation:
[
  {
    "molecule": "CC1=C(C)C(=O)C(C(CCCCCC(=O)O)c2ccccc2)=C(C)C1=O (centres unmarked)",
    "readoutValue": 7.55
  },
  {
    "molecule": "COC1=C(OC)C(=O)C(C(CCC(=O)O)c2ccccc2)=C(C)C1=O (centres unmarked)",
    "readoutValue": 5.89
  },
  {
    "molecule": "CC1=C(C)C(=O)C(C(CCC(=O)O)c2ccccc2)=C(C)C1=O (centres unmarked)",
    "readoutValue": 6.36
  },
  {
    "molecule": "COC1=C(OC)C(=O)C(C(CCCCC(=O)O)c2cccs2)=C(C)C1=O (centres unmarked)",
    "readoutValue": 6.70
  },
  {
    "molecule": "CC1=C(C)C(=O)C(C(CCCCCCO)c2ccccc2)=C(C)C1=O (centres unmarked)",
    "readoutValue": 7.55
  },
  {
    "molecule": "CC1=C(C)C(=O)C(C(CCCC(=O)O)c2ccccc2)=C(C)C1=O (centres unmarked)",
    "readoutValue": 6.49
  }
]

Hi, could you look up pIC50 for each item in my list?
1. CC1=C(C(CCCCCCC(=O)O)c2ccccc2)C(=O)c2ccccc2C1=O (centres unmarked)
2. CCOC(=O)CCCCC(C1=C(C)C(=O)C(OC)=C(OC)C1=O)c1ccccc1 (centres unmarked)

# output
6.70
6.85
